Field: viability, T/C. Provide a value for each of the compounds that follow.
Tested on: 653999-131-R-J2-PDC complex spheroids, growth inhibition
Assay overview: Anticancer human tumor 653999-131-R-J2-PDC patient-derived lung adenocarcinoma cell line growth inhibition [RAS]
Test conditions: second compound 0.3 µM; first compound 10 µM; stronger effect = lower value
One number for each entry, in %.

In the examples that follow, each entry is paired with its recorded viability, T/C.
Compound | viability, T/C (%)
CCC(CC)c1cc(NC2CCC(N)C2)n2nccc2n1 (stereo not drawn) + CCn1c(-c2cccnc2C(C)OC)c2c3cc(ccc31)N1CCOC(CC(NC(=O)C(C(C)C)N(C)C(=O)C3(F)CCN(C(=O)C#CC(C)(C)N(C)C)CC3)C(=O)N3CCCC(N3)C(=O)OCC(C)(C)C2)C1 | 20.5
CC(=O)OC12COC1CC(O)C1(C)C(=O)C(O)C3=C(C)C(OC(=O)C(O)C(NC(=O)OC(C)(C)C)c4ccccc4)CC(O)(C(OC(=O)c4ccccc4)C21)C3(C)C (stereo not drawn) + CCn1c(-c2cc(N3CCN(C)CC3)cnc2C(C)OC)c2c3cc(ccc31)-c1csc(n1)CC(NC(=O)C1CC1C)C(=O)N1CCCC(N1)C(=O)OCC(C)(C)C2 | 12.3

Query: If you can, please state the reported viability, T/C value of Cc1nc(N2CCC3(CC2)COC(C)C3N)c(CO)nc1Sc1ccnc(N)c1Cl (stereo not drawn) + CCn1c(-c2cc(N3CCN(C)CC3)cnc2C(C)OC)c2c3cc(ccc31)-c1csc(n1)CC(NC(=O)C1CC1C)C(=O)N1CCCC(N1)C(=O)OCC(C)(C)C2 .
Result: 7.03

###

System: 653999-131-R-J2-PDC complex spheroids, growth inhibition
Assay overview: Anticancer human tumor 653999-131-R-J2-PDC cell line growth inhibition [RAS];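 further: spheroids exposed to the agents for seven days before the readout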
Test conditions: second compound 0.1 µM; first compound 3.16 µM; stronger effect = lower value
Excerpt: RAS pathway inhibitors in Combinations in Complex Spheroids A high-throughput screen of multi-cell type tumor spheroids was designed to identify active combinations of RAS pathway inhibitors and targeted small molecules. Complex spheroids include a stromal component modeled by human endothelial cells (HUVEC) and fibroblasts modeled by human mesenchymal stem cells (MSCs). […] Compounds. […] If the clinical Cmax for an agent had not been determined, the highest concentration tested was 10 microM. […]
Field: viability, T/C. Provide a value for each of the compounds that follow.
Numbers only, in %.

Compound | Units symbol | viability, T/C
CC(C)NCC(C(=O)N1CCN(c2ncnc3c2C(C)CC3O)CC1)c1ccc(Cl)cc1 (stereo not drawn) + C=CC(=O)N1CCN(c2nc(OCC3CCCN3C)nc3c(F)c(-c4nc(N)cc(C)c4C(F)(F)F)c(Cl)cc23)C(C)C1 | % | 45.1
NC1c2ccccc2OC12CCN(c1cnc3c(N4CCCc5ncccc54)n[nH]c3n1)CC2 (stereo not drawn) + C#Cc1c(F)ccc2cc(O)cc(-c3ncc4c(N5CC6CCC(C5)N6)nc(OCC56CCCN5CC(F)C6)nc4c3F)c12 | % | 44.6

Attention now turns to another entry.
Query: If you can, please state the reported viability, T/C value of CCC(CC)c1cc(NC2CCC(N)C2)n2nccc2n1 (stereo not drawn) + C=CC(=O)N1CCN(c2nc(OCC3CCCN3C)nc3c(F)c(-c4nc(N)cc(C)c4C(F)(F)F)c(Cl)cc23)C(C)C1 .
Result: 16.1

###

Test system: 653999-131-R-J2-PDC complex spheroids, growth inhibition
Assay overview: Anticancer human tumor 653999-131-R-J2-PDC cell line growth inhibition [RAS];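 further: spheroids exposed to the agents for seven days before the readout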
Test conditions: second compound 0.01 µM; first compound 0.00316 µM; stronger effect = lower value
Field: viability, T/C. Provide a value for each of the compounds that follow.
Give bare numbers, in %.

In the examples that follow, each entry is paired with its recorded viability, T/C.
Compound | Units symbol | viability, T/C
CCN1CCN(Cc2ccc(Nc3ncc(F)c(-c4cc(F)c5nc(C)n(C(C)C)c5c4)n3)nc2)CC1 + C=CC(=O)N1CCN(c2nc(OCC3CCCN3C)nc3c(F)c(-c4nc(N)cc(C)c4C(F)(F)F)c(Cl)cc23)C(C)C1 | % | 93.4
Nc1ccn(C2OC(CO)C(O)C2(F)F)c(=O)n1 (stereo not given) + C=CC(=O)N1CCN(c2nc(OCC3CCCN3C)nc3c(F)c(-c4nc(N)cc(C)c4C(F)(F)F)c(Cl)cc23)C(C)C1 | % | 107
CC(C)n1nc(-c2ccc3oc(N)nc3c2)c2c(N)ncnc21 + C=CC(=O)N1CCN(c2nc(OCC3CCCN3C)nc3c(F)c(-c4nc(N)cc(C)c4C(F)(F)F)c(Cl)cc23)C(C)C1 | % | 68.8

# batch: return viability, T/C for each of the 2 compounds below
1. C=CC(=O)Nc1cc(Nc2nccc(-c3cn(C)c4ccccc34)n2)c(OC)cc1N(C)CCN(C)C + C=CC(=O)N1CCN(c2nc(OCC3CCCN3C)nc3c(F)c(-c4nc(N)cc(C)c4C(F)(F)F)c(Cl)cc23)C(C)C1
2. O=C(c1ccc(F)c(F)c1Nc1ccc(I)cc1F)N1CC(O)([C@@H]2CCCCN2)C1 + C=CC(=O)N1CCN(c2nc(OCC3CCCN3C)nc3c(F)c(-c4nc(N)cc(C)c4C(F)(F)F)c(Cl)cc23)C(C)C1

Result:
1: 94.1; 2: 94.1

###

Field: viability, T/C. Provide a value for each of the molecules that follow.
Tested on: 653999-131-R-J2-PDC complex spheroids, growth inhibition
Assay overview: Anticancer human tumor 653999-131-R-J2-PDC cell line growth inhibition [RAS];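 further: spheroids exposed to the agents for seven days before the readout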
Test conditions: second compound 0.003 µM; first compound 0.01 µM; stronger effect = lower value
One number for each entry, in %.

Molecule | Units symbol | viability, T/C
CCN1CCN(Cc2ccc(Nc3ncc(F)c(-c4cc(F)c5nc(C)n(C(C)C)c5c4)n3)nc2)CC1 + CCn1c(-c2cccnc2C(C)OC)c2c3cc(ccc31)N1CCOC(CC(NC(=O)C(C(C)C)N(C)C(=O)C3(F)CCN(C(=O)C#CC(C)(C)N(C)C)CC3)C(=O)N3CCCC(N3)C(=O)OCC(C)(C)C2)C1 | % | 76.9

Attention now turns to another entry.
Query: If you can, please state the reported viability, T/C value of CC(C)n1nc(-c2ccc3oc(N)nc3c2)c2c(N)ncnc21 + CCn1c(-c2cccnc2C(C)OC)c2c3cc(ccc31)N1CCOC(CC(NC(=O)C(C(C)C)N(C)C(=O)C3(F)CCN(C(=O)C#CC(C)(C)N(C)C)CC3)C(=O)N3CCCC(N3)C(=O)OCC(C)(C)C2)C1 .
Result: 62.7

###

System: 653999-131-R-J2-PDC complex spheroids, growth inhibition
Assay overview: Anticancer human tumor 653999-131-R-J2-PDC cell line growth inhibition [RAS];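 further: spheroids exposed to the agents for seven days before the readout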
Test conditions: curve of first compound; second compound 0.3 µM
Parameter: IC50 (nM)
Give bare numbers, in nM.

Molecule | IC50 / nM
CC(Nc1ccc2c(c1)OCCn1cc(N3C(=O)OCC3C(F)F)nc1-2)C(N)=O (centres undefined) + CCn1c(-c2cccnc2C(C)OC)c2c3cc(ccc31)N1CCOC(CC(NC(=O)C(C(C)C)N(C)C(=O)C3(F)CCN(C(=O)C#CC(C)(C)N(C)C)CC3)C(=O)N3CCCC(N3)C(=O)OCC(C)(C)C2)C1 | 442

Attention now turns to another entry.
Query: If you can, please state the reported IC50 value of CCC(CC)c1cc(NC2CCC(N)C2)n2nccc2n1 (centres undefined) + CCn1c(-c2cccnc2C(C)OC)c2c3cc(ccc31)N1CCOC(CC(NC(=O)C(C(C)C)N(C)C(=O)C3(F)CCN(C(=O)C#CC(C)(C)N(C)C)CC3)C(=O)N3CCCC(N3)C(=O)OCC(C)(C)C2)C1 .
Result: 1910

###

System: 653999-131-R-J2-PDC complex spheroids, growth inhibition
Assay overview: Anticancer human tumor 653999-131-R-J2-PDC cell line growth inhibition [RAS];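 further: spheroids exposed to the agents for seven days before the readout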
Test conditions: second compound 0.0949 µM; first compound 0.000949 µM; stronger effect = lower value
Excerpt: RAS pathway inhibitors in Combinations in Complex Spheroids A high-throughput screen of multi-cell type tumor spheroids was designed to identify active combinations of RAS pathway inhibitors and targeted small molecules. Complex spheroids include a stromal component modeled by human endothelial cells (HUVEC) and fibroblasts modeled by human mesenchymal stem cells (MSCs). […] Compounds. […] If the clinical Cmax for an agent had not been determined, the highest concentration tested was 10 microM. […]
Parameter: viability, T/C (%)
Answers are plain numbers, in %.

Compound | Units symbol | viability, T/C
CCc1c2c(nc3ccc(O)cc13)-c1cc3c(c(=O)n1C2)COC(=O)[C@]3(O)CC + CCn1c(-c2cc(N3CCN(C)CC3)cnc2C(C)OC)c2c3cc(ccc31)-c1csc(n1)CC(NC(=O)C1CC1C)C(=O)N1CCCC(N1)C(=O)OCC(C)(C)C2 | % | 23.9
CC1(C)CCC(Nc2ncc(C(F)(F)F)c(-c3c[nH]c4c(P(C)(C)=O)c(C#N)ccc34)n2)CN1 (centres undefined) + CCn1c(-c2cccnc2C(C)OC)c2c3cc(ccc31)N1CCOC(CC(NC(=O)C(C(C)C)N(C)C(=O)C3(F)CCN(C(=O)C#CC(C)(C)N(C)C)CC3)C(=O)N3CCCC(N3)C(=O)OCC(C)(C)C2)C1 | % | 80.4
CCc1c2c(nc3ccc(O)cc13)-c1cc3c(c(=O)n1C2)COC(=O)[C@]3(O)CC + CCn1c(-c2cccnc2C(C)OC)c2c3cc(ccc31)N1CCOC(CC(NC(=O)C(C(C)C)N(C)C(=O)C3(F)CCN(C(=O)C#CC(C)(C)N(C)C)CC3)C(=O)N3CCCC(N3)C(=O)OCC(C)(C)C2)C1 | % | 90.6

Attention now turns to another entry.
Query: If you can, please state the reported viability, T/C value of CC1(C)CCC(Nc2ncc(C(F)(F)F)c(-c3c[nH]c4c(P(C)(C)=O)c(C#N)ccc34)n2)CN1 (centres undefined) + CCn1c(-c2cc(N3CCN(C)CC3)cnc2C(C)OC)c2c3cc(ccc31)-c1csc(n1)CC(NC(=O)C1CC1C)C(=O)N1CCCC(N1)C(=O)OCC(C)(C)C2 .
Result: 16.4
